Tested on: 60 cancer cell lines (NCI 60 cancer cell line series)
Assay: NCI-DTP in vitro cancer screen, sulforhodamine B (SRB) growth inhibition, 48 hour exposure
Format: cell-based, human
Details: Ovarian SK-OV-3 CL6011
Structures can show the parent of a compound that is named as a salt.
For each entry below, report its sensitivity classification Low(1)/Medium(2)/High(3) value.

Solved cases below.
Request: Report sensitivity classification Low(1)/Medium(2)/High(3) for O=C1c2c(O)ccc(O)c2C(=O)c2c(NCCNCCO)ccc(NCCNCCO)c21 please.
Result: 2

Request: // repeat for Sc1ncnc2nc[nH]c12 and report
Result: 3

Request: // repeat for CC[C@]1(O)C[C@@H]2CN(CCc3c([nH]c4ccccc34)[C@@](C(=O)OC)(c3cc4c(cc3OC)N(C)[C@H]3[C@@](O)(C(=O)OC)[C@H](OC(C)=O)[C@]5(CC)C=CCN6CC[C@]43[C@@H]65)C2)C1 [Vinblastine sulfate] and report
Result: 2

Request: // repeat for CC[C@]1(O)C[C@H]2CN(CCc3c([nH]c4ccccc34)[C@@](C(=O)OC)(c3cc4c(cc3OC)N(C=O)[C@H]3[C@@](O)(C(=O)OC)[C@H](OC(C)=O)[C@]5(CC)C=CCN6CC[C@]43[C@@H]65)C2)C1 [Vincristine sulfate] and report
Result: 2

Request: // repeat for N[C@@H](Cc1ccc(N(CCCl)CCCl)cc1)C(=O)O and report
Result: 2

Request: // repeat for O=c1[nH]cc(F)c(=O)[nH]1 and report
Result: 1

Required: sensitivity classification Low(1)/Medium(2)/High(3), one value per molecule below.
1. CS(=O)(=O)OCCCCOS(C)(=O)=O
2. COc1cccc2c1C(=O)c1c(O)c3c(c(O)c1C2=O)C[C@@](O)(C(=O)CO)C[C@@H]3O[C@H]1C[C@H](N)[C@H](O)[C@H](C)O1
3. NC(=O)NO [Hydroxyurea]
4. CC(=O)O[C@H]1C(=O)[C@@]2(C)[C@H]([C@H](OC(=O)c3ccccc3)[C@]3(O)C[C@H](OC(=O)[C@H](O)[C@@H](NC(=O)c4ccccc4)c4ccccc4)C(C)=C1C3(C)C)[C@]1(OC(C)=O)CO[C@@H]1C[C@@H]2O [TAXOL, paclitaxel, reference compound]
5. COc1cc([C@@H]2c3cc4c(cc3[C@@H](O[C@@H]3O[C@@H]5CO[C@@H](C)O[C@H]5[C@H](O)[C@H]3O)[C@H]3COC(=O)[C@H]23)OCO4)cc(OC)c1O [Etoposide]

Result:
1: 1; 2: 2; 3: 1; 4: 2; 5: 2

Required: sensitivity classification Low(1)/Medium(2)/High(3), one value per molecule below.
1. COc1cccc2c1C(=O)c1c(O)c3c(c(O)c1C2=O)C[C@@](O)(C(=O)CO)C[C@@H]3OC1CC(N)CC(C)O1.Cl (some centres unmarked)
2. COc1cc([C@@H]2c3cc4c(cc3[C@@H](O[C@@H]3O[C@@H]5CO[C@@H](c6cccs6)O[C@H]5[C@H](O)[C@H]3O)[C@H]3COC(=O)[C@H]23)OCO4)cc(OC)c1O [Teniposide]
3. O=C(O)CCCc1ccc(N(CCCl)CCCl)cc1

Result:
1. 2
2. 2
3. 1

---

System: 60 cancer cell lines (NCI 60 cancer cell line series)
Test: NCI-DTP in vitro cancer screen, sulforhodamine B (SRB) growth inhibition, 48 hour exposure
Format: cell-based, human
Conditions: Colon HT29(I) CL4001
Where a name gives a salt, the structure may show the parent alone.
value.type: classification of cell line as Low(1), Medium(2), High(3) sensitivity to compound
Answers are plain numbers.

Solved cases below.
Request: Report classification of cell line as Low(1), Medium(2), High(3) sensitivity to compound for COc1cc([C@@H]2c3cc4c(cc3[C@@H](O[C@@H]3O[C@@H]5CO[C@@H](C)O[C@H]5[C@H](O)[C@H]3O)[C@H]3COC(=O)[C@H]23)OCO4)cc(OC)c1O [Etoposide] please.
Result: 1

Request: // repeat for COc1cccc2c1C(=O)c1c(O)c3c(c(O)c1C2=O)C[C@@](O)(C(C)=O)C[C@@H]3O[C@H]1C[C@H](N)[C@H](O)[C@H](C)O1 and report
Result: 2

Request: // repeat for NC(=O)NO [Hydroxyurea] and report
Result: 2

Request: // repeat for O=C1c2c(O)ccc(O)c2C(=O)c2c(NCCNCCO)ccc(NCCNCCO)c21 and report
Result: 1

Request: // repeat for O=c1[nH]cc(F)c(=O)[nH]1 and report
Result: 2

Request: // repeat for CC(=O)O[C@H]1C(=O)[C@@]2(C)[C@H]([C@H](OC(=O)c3ccccc3)[C@]3(O)C[C@H](OC(=O)[C@H](O)[C@@H](NC(=O)c4ccccc4)c4ccccc4)C(C)=C1C3(C)C)[C@]1(OC(C)=O)CO[C@@H]1C[C@@H]2O [TAXOL, paclitaxel, reference compound] and report
Result: 3

Required: classification of cell line as Low(1), Medium(2), High(3) sensitivity to compound, one value per compound below.
1. COc1cc([C@@H]2c3cc4c(cc3[C@@H](O[C@@H]3O[C@@H]5CO[C@@H](c6cccs6)O[C@H]5[C@H](O)[C@H]3O)[C@H]3COC(=O)[C@H]23)OCO4)cc(OC)c1O [Teniposide]
2. Sc1ncnc2nc[nH]c12

Result:
1. 2
2. 2

Required: classification of cell line as Low(1), Medium(2), High(3) sensitivity to compound, one value per compound below.
1. CC[C@]1(O)C[C@H]2CN(CCc3c([nH]c4ccccc34)[C@@](C(=O)OC)(c3cc4c(cc3OC)N(C=O)[C@H]3[C@@](O)(C(=O)OC)[C@H](OC(C)=O)[C@]5(CC)C=CCN6CC[C@]43[C@@H]65)C2)C1 [Vincristine sulfate]
2. COc1cccc2c1C(=O)c1c(O)c3c(c(O)c1C2=O)C[C@@](O)(C(=O)CO)C[C@@H]3OC1CC(N)CC(C)O1.Cl (stereo partly drawn)
3. COc1cccc2c1C(=O)c1c(O)c3c(c(O)c1C2=O)C[C@@](O)(C(=O)CO)C[C@@H]3O[C@H]1C[C@H](N)[C@H](O)[C@H](C)O1
4. O=C(O)CCCc1ccc(N(CCCl)CCCl)cc1
5. N[C@@H](Cc1ccc(N(CCCl)CCCl)cc1)C(=O)O
6. CS(=O)(=O)OCCCCOS(C)(=O)=O

Result:
[3, 2, 2, 1, 1, 1]

Request: Report classification of cell line as Low(1), Medium(2), High(3) sensitivity to compound for N.N.[Cl][Pt][Cl] [cisplatin, cis-Diamminedichloroplatinum (II), reference compound] please.
Result: 1
